# tgt: MIP3a (Homo sapiens, UniProt P78556)
# Sequence (P78556 27-96): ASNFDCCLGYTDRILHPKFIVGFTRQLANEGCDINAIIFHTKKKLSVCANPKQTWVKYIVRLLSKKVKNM
# measurement.protocol: Migration of CD4+ T-cells toward MIP3a (Transwell migration assay)
# Format: cell-based
# recorded.conditions: 10 μg/ml
quantity.name: Inhibition of CD4+ T-cell migration towards MIP3a

Below are worked cases with known answers.
COC(=O)c1c(O)cc2c(c1C)C(=O)c1c(O)cccc1C2=O [BKT207, Aloesaponarin I] | completely inhibited
CCC/C=C\C/C=C\CCCCCCCc1cccc(O)c1C(=O)O [BKT206] | completely inhibited
O=C(O)c1cc(O)c2c(c1)[C@H]([C@H]1c3cc(C(=O)O)cc(O)c3C(=O)c3c(O[C@@H]4O[C@H](CO)[C@@H](O)[C@H](O)[C@H]4O)cccc31)c1cccc(O[C@@H]3O[C@H](CO)[C@@H](O)[C@H](O)[C@H]3O)c1C2=O [BKT210, Sennoside A] | significantly inhibited
C=C[C@H](O)C#CC#C[C@@H](O)/C=C\CCCCCCC [BKT212, Falcarindiol] | completely inhibited
C=C1CCC2C(C)(C)C(O)CCC2(C)C1COc1ccc2ccc(=O)oc2c1 (stereo not drawn) [BKT202] | significantly inhibited

Read the next record carefully.
Cc1cc(O)c2c(=O)c3c(O)cc(O)c4c5c(O)cc(O)c6c(=O)c7c(O)cc(C)c8c1c2c(c34)c(c78)c65 [BKT203, Hypericin] has a reported Inhibition of CD4+ T-cell migration towards MIP3a of completely inhibited
